experiment: Distribution coefficient, log D at pH 7.4; type: physicochemical; settings: octanol/water
We begin with a simple list: items and their reported logD.

compound | logD
Cc1nc2c3c(c(C(N)=O)cn2c1C)CCC(c1ccccc1)C3 (stereo not given) | 3.21
Cc1nc2c3c(ccn2c1C)CCC(c1ccccc1)C3 (stereo not given) | 3.9
Cc1nc2c3c(c(C(=O)N(C)C)cn2c1C)CCC(c1ccccc1)C3 (stereo not given) | 2.9
COCCNC(=O)c1cn2c(C)c(C)nc2c2c1CCC(c1ccccc1)C2 (stereo not given) | 3.31
Cc1nc2c3c(c(C(=O)N4CCCC4)cn2c1C)CCC(c1ccccc1)C3 (stereo not given) | 3.37
Cc1cn2cc(C(=O)N(C)C)c3c(c2n1)CC(c1ccccc1)CC3 (stereo not given) | 2.77
Cc1nc2c3c(c(C(=O)NCCO)cn2c1C)CCC(c1ccccc1)C3 (stereo not given) | 2.81
Cc1nc2c3c(c(C(=O)N(C)C)cn2c1Br)CCC(c1ccccc1)C3 (stereo not given) | 3.8
Cc1nc2c3c(c(C(=O)N4CCOCC4)cn2c1C)CCC(c1ccccc1)C3 (stereo not given) | 2.76
Cc1cn2ccc3c(c2n1)CC(c1ccccc1)CC3 (stereo not given) | 3.81

Hey, just so you know, these numbers are from ChEMBL document CHEMBL1137528.
